Source: the supplement of paper PMC7877785

# Test protocol: self-splicing fitness, log relative to wild type (ln ratio); higher = more splicing; Tetrahymena group I intron in knt gene, E. coli kanamycin selection, DiMSum; sequences stand for … in CUCUCU…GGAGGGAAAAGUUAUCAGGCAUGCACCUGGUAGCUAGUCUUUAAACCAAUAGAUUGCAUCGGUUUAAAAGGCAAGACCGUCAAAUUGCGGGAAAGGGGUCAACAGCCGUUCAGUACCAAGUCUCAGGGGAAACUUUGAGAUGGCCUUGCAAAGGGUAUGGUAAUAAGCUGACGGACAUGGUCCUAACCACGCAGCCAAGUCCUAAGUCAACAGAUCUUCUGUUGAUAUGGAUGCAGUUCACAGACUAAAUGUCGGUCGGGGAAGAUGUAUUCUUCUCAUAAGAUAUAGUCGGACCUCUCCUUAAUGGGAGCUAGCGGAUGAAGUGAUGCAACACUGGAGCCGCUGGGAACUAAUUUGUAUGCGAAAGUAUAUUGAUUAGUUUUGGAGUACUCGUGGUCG;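 note: selection with 25 µg/mL kanamycin versus none on LB agar overnight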
# Condition info: 37 °C
Each record gets a class by self-splicing fitness (ln): A (below -2), B (-2 to below -1), C (-1 or more)

Category of AGUGAGCAAUAUUACGAUUC , please. B
